target: T1, monomeric soluble human BTLA extracellular domain (BTLA K31-R151) (human, UniProt Q7Z6A9 31-151); test: SPR 37C, mAb captured, BTLA ECD analyte;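 also: Anti-BTLA mouse antibodies captured on a sensor chip via polyclonal anti-mouse IgG, isotype control antibody in reference channel, rates fitted after reference and blank subtraction to derive Kd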
T1 construct: also called hBTLA; monomeric BTLA
T1 sequence (Q7Z6A9 31-151): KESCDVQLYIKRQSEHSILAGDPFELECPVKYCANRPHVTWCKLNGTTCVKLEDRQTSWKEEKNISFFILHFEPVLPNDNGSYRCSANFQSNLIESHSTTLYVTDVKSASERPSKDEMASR
# key: entry, value: koff
quantity_name: koff

# binder, experimental_result
data = [
    ("7A1 (antibody, IgG1, V domains shown, mIgG1) VH: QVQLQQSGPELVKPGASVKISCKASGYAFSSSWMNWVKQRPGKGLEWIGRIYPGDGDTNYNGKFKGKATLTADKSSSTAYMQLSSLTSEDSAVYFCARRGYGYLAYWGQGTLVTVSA VL: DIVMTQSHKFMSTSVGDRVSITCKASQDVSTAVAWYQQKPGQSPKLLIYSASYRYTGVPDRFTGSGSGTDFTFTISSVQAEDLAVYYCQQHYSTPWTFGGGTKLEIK", "0.0166 s⁻¹"),
    ("16F10 (antibody, IgG1, V domains shown, mIgG1) VH: DVQLQESGPGLVKPSQSLSLTCSVTGYSITSGYYWNWIRQFPGNKLEWMGYISYDGSNNYNPSLKNRISITRDTSKNQFFLKLNSVTTEDTATYYCASIYGNYYAMDYWGQGTSVTVSS VL: QIVLTQSPAIMSASPGEKVTMTCSASSSVSYMHWYQQKSGTSPKRWIYDTSKLASGVPARFSGSGSGTSYSLTISSMEAEDAATYYCQQWSSNPPTFGSGTKLEIK", "0.0283 s⁻¹"),
]
